Origin of the recorded values: patent US20140005163A1

# System: PKB Ser473 phosphorylation in Rat1-myr-HA-p110 alpha cells
# assay-notes: Reverse protein array assay, PKB Ser473 phosphorylation in Rat1-myr-p110 alpha cells
# Assay type: cell-based
# measurement-setup: 0.5 h, pAkt Ser473, 30 minutes compound incubation, read-out: p-PKB IC50
Could you please report measured pIC50 for the items listed next?
Convention used: pIC50 is expressed as -log10 of the molar concentration.

API: value(readout= pIC50, system= PKB Ser473 phosphorylation in Rat1-myr-HA-p110 alpha cells, query= "Cc1nn(C(C)C)cc1-n1c(=O)n(C)c2cnc3ccc(-c4cnc5c(c4)COC(=O)N5C)cc3c21" )
6.57

And the next one, "Cc1nn(C(C)C)cc1-n1c(=O)n(C)c2cnc3ccc(-c4cnc(F)c(N)c4)cc3c21" ?
7.51

And the next one, "CCn1cc(-n2c(=O)n(C)c3cnc4ccc(-c5cncc(OC(C)C)c5)cc4c32)c(C)n1" ?
7.60

And the next one, "Cc1nn(C)cc1-n1c(=O)n(C)c2cnc3ccc(-c4cccc(O)c4)cc3c21" ?
7.07

And the next one, "Cc1nn(C)cc1-n1c(=O)n(C)c2cnc3ccc(-c4cnc(N5CCCC5)nc4)cc3c21" ?
7.54

And the next one, "CCOCc1cc(-c2ccc3ncc4c(c3c2)n(-c2c(C)nn(C)c2C)c(=O)n4C)cnc1N" ?
6.52

And the next one, "COCc1cc(-c2ccc3ncc4c(c3c2)n(-c2cn(C)nc2C)c(=O)n4C)cnc1OC" ?
7.64
